protocol summary: Comparative dog plasma PK of Int 1-4 versus gemcitabine (study k)
Type: in vivo
particulars: male beagle dog, after iv gemcitabine 5.29 mg/kg
measure name: half-life (min)

{"molecular string": "Nc1ccn([C@@H]2O[C@H](CO)[C@@H](O)C2(F)F)c(=O)n1", "reading": 122}

###

protocol summary: Int 1-4 dog plasma PK (study j)
Assay type: in vivo
particulars: male beagle dog, after iv Int 1-4 10 mg/kg (study j)
Below, each entry is listed alongside its reported AUC(0-t).
measure name: AUC(0-t)

{"compound": "COc1cc(OC)c2oc(COC(=O)Nc3ccn([C@@H]4O[C@H](CO)[C@@H](O)C4(F)F)c(=O)n3)cc2c1 [Int 1-4]", "reading": "4730 ng·h/mL"}
{"compound": "Nc1ccn([C@@H]2O[C@H](CO)[C@@H](O)C2(F)F)c(=O)n1 [Gemcitabine, gemcitabine]", "reading": "6160 ng·h/mL"}

###

protocol summary: Comparative plasma PK of Int 1-4 versus gemcitabine in mouse (study a)
Assay type: in vivo
particulars: mouse; plasma, CD-1 mice, after iv Int 1-4 9.4 mg/kg

{"molecular string": "COc1cc(OC)c2oc(COC(=O)Nc3ccn([C@@H]4O[C@H](CO)[C@@H](O)C4(F)F)c(=O)n3)cc2c1", "measurement unit": "µg/mL", "C0": 78}

###

protocol summary: Comparative PK of Int 1-4 versus gemcitabine in rat plasma (study i)
Assay type: in vivo, Sprague-Dawley rats
particulars: plasma, Sprague-Dawley rat, after iv gemcitabine 4.47 mg/kg; read-out: MRT0-inf

{"compound": "Nc1ccn([C@@H]2O[C@H](CO)[C@@H](O)C2(F)F)c(=O)n1 [Gemcitabine, gemcitabine]", "MRT inf / h": 4.63}

###

protocol summary: Compound 1 and gemcitabine plasma PK in the male cynomolgus monkey (study h)
Assay type: in vivo
particulars: plasma, after iv Compound 1 5 mg/kg, read-out: MRT0-last
Where a name gives a salt, the structure may show the parent alone.
measure name: MRT last (min)

{"compound": "COc1cc(OC)c2oc(COC(=O)Nc3ccn([C@@H]4O[C@H](COP(=O)(O)O)[C@@H](O)C4(F)F)c(=O)n3)cc2c1 [Compound 1, ammonium salt]", "measure name": "MRT last", "measurement unit": "min", "reading": 0.6}
{"compound": "Nc1ccn([C@@H]2O[C@H](CO)[C@@H](O)C2(F)F)c(=O)n1", "measure name": "MRT last", "measurement unit": "min", "reading": 11.4}
{"compound": "COc1cc(OC)c2oc(COC(=O)Nc3ccn([C@@H]4O[C@H](CO)[C@@H](O)C4(F)F)c(=O)n3)cc2c1", "measure name": "MRT last", "measurement unit": "min", "reading": 21.6}

###

protocol summary: Compound 1 and gemcitabine plasma PK in the male cynomolgus monkey (study h)
Assay type: in vivo
particulars: plasma, after iv Compound 1 5 mg/kg
Counter-ions that a name gives are not always drawn.
measure name: clearance (mL/min/kg)

{"compound": "COc1cc(OC)c2oc(COC(=O)Nc3ccn([C@@H]4O[C@H](COP(=O)(O)O)[C@@H](O)C4(F)F)c(=O)n3)cc2c1 [Compound 1, ammonium salt]", "reading": 46.5}

###

Listing: AUC(0-t) of selected compounds
protocol summary: Int 1-4 dog plasma PK (study j)
Format: in vivo
particulars: male beagle dog, after iv Int 1-4 20 mg/kg (study j)

{"compound": "Nc1ccn([C@@H]2O[C@H](CO)[C@@H](O)C2(F)F)c(=O)n1 [Gemcitabine, gemcitabine]", "measurement unit": "ng·h/mL", "AUC(0-t)": 7690}
{"compound": "COc1cc(OC)c2oc(COC(=O)Nc3ccn([C@@H]4O[C@H](CO)[C@@H](O)C4(F)F)c(=O)n3)cc2c1 [Int 1-4]", "measurement unit": "ng·h/mL", "AUC(0-t)": 7930}

###

protocol summary: Int 1-4 and gemcitabine comparative PK in male cynomolgus monkey (study g)
Assay type: in vivo
particulars: plasma, male cynomolgus monkey, after iv gemcitabine 2.65 mg/kg; read-out: MRT0-inf
measure name: MRT inf (s)

{"molecular string": "Nc1ccn([C@@H]2O[C@H](CO)[C@@H](O)C2(F)F)c(=O)n1", "measure name": "MRT inf", "measurement unit": "s", "reading": 36}

###

protocol summary: Comparative plasma PK of Int 1-4 versus gemcitabine in mouse (study a)
Assay type: in vivo
particulars: mouse; plasma, CD-1 mice, after iv Int 1-4 9.4 mg/kg; read-out: Tmax

{"molecular string": "Nc1ccn([C@@H]2O[C@H](CO)[C@@H](O)C2(F)F)c(=O)n1", "Tmax": "8.34 min"}
